molecular target: ATP-dependent translocase ABCB1 (Homo sapiens, UniProt P08183); experiment: Modulation of ABCB1 (unknown origin) expressed in human COLO320 cells co-expressing LRP assessed as fluorescence activity ratio at 20 uM pretreated for 10 mins followed by rhodamine 123 addition and measured after 20 mins by flow cytometry (reference value: 0.79); format: cell-based
Sequence (P08183 whole entry): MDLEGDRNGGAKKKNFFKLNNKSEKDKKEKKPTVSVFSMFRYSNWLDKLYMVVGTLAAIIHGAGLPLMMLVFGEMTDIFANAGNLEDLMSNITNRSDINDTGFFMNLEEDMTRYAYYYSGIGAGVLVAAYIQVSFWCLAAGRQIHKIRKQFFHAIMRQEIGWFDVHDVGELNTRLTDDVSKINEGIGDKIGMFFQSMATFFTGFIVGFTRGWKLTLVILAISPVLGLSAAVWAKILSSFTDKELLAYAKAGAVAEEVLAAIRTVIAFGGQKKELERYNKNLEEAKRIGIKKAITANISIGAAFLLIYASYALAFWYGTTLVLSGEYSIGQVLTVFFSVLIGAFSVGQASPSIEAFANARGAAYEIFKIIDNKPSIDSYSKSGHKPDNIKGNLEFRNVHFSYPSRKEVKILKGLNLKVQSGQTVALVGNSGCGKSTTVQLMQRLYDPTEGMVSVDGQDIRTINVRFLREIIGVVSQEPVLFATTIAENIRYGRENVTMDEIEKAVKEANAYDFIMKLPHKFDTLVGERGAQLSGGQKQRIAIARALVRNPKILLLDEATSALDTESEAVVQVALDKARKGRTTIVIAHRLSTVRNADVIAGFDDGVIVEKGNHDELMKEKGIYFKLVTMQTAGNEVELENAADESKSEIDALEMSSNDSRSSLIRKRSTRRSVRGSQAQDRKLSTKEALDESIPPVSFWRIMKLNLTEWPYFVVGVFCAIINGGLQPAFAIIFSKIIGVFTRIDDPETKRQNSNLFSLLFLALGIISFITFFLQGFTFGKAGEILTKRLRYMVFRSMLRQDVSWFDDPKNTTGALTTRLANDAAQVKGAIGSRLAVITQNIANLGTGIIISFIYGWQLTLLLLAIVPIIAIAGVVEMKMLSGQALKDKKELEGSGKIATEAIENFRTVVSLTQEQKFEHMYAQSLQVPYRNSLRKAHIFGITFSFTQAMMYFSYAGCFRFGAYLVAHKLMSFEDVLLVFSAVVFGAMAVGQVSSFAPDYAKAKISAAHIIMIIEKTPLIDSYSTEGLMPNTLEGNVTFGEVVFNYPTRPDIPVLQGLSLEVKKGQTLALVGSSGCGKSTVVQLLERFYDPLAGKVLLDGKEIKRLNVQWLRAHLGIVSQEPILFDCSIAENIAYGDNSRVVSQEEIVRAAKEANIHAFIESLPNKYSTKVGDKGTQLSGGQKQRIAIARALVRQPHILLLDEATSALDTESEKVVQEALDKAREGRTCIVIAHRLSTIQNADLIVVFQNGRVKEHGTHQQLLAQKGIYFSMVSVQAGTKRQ
TEST_READOUT: Ratio
Hey, just send me the number, nothing else.

Tell me Ratio reported for C[C@H](C/C=C/C(C)(C)O)[C@H]1CC[C@@]2(C)[C@@H]3CC[C@H]4C(C)(C)[C@@H](O)CC[C@@]45C[C@@]35CC[C@]12C
3.45

Please give measured Ratio of the following entry: C=C(CC[C@@H](C)[C@H]1CC[C@@]2(C)C3=C(C(=O)C[C@]12C)[C@@]1(C)CC[C@H](O)[C@@H](C)[C@@H]1CC3=O)C(C)C
1.84

Determine its reported Ratio: C=C(C)[C@H](O)CC[C@@H](C)[C@H]1CC[C@@]2(C)[C@@H]3CC[C@H]4C(C)(C)[C@@H](O)CC[C@@]45C[C@@]35CC[C@]12C
5.91

* * *

target: UniProtKB P08183; assay: Modulation of human ABCB1 expressed in mouse L5178Y cells assessed as potentiation of doxorubicin-induced cytotoxicity by measuring combination index at ED50 measured after 48 hrs by MTT assay; format: cell-based
TEST_READOUT: CI
# print the numeric value only

Give CI for CC1=C2C=C3CC[C@@H]4C(C)(C)/C(=N/OC(=O)c5ccccc5)CC[C@@]4(C)[C@@H]3C[C@H]2OC1=O tested on UniProtKB P08183.
0.152

Quote UniProtKB P08183 CI for entry CC(=O)O/N=C1\CC[C@@]2(C)[C@@H]3C[C@H]4OC(=O)C(C)=C4C=C3CC[C@@H]2C1(C)C .
0.501

Lab note: record CI of CCCC(=O)O/N=C1\CC[C@@]2(C)[C@@H]3C[C@H]4OC(=O)C(C)=C4C=C3CC[C@@H]2C1(C)C tested on UniProtKB P08183.
0.387

Name the value of CI reported for CC1=C2C=C3CC[C@@H]4C(C)(C)/C(=N/OC(=O)c5cccs5)CC[C@@]4(C)[C@@H]3C[C@H]2OC1=O when tested on UniProtKB P08183.
0.324

Send back UniProtKB P08183 CI of C=C(CC[C@@H](C)[C@H]1CC[C@@]2(C)C(=O)[C@@]3(CC[C@]12C)[C@@H](O)C[C@H]1[C@H](C)[C@@H](O)CC[C@@]13C)C(C)C only.
0.872

Provide measured CI on UniProtKB P08183 for CC1=C2C=C3CC[C@@H]4C(C)(C)[C@@H](O)CC[C@@]4(C)[C@@H]3C[C@H]2OC1=O [HELIOSCOPINOLIDE B] please.
0.652

* * *

molecular target: ATP-dependent translocase ABCB1 (Homo sapiens); test: Modulation of human ABCB1 expressed in mouse L5178Y cells assessed as fluorescence activity ratio at 2 uM pretreated for 10 mins followed by rhodamine 123 addition and measured after 20 mins by flow cytometry (reference value: 1.01); type: cell-based
Lab note: cut-off is 3. Strictly less in Ratio is Y. Exactly 3 or more is N.

Could you please tell me whether Ratio recorded for CC1=C2C=C3CC[C@@H]4C(C)(C)C(=O)CC[C@@]4(C)[C@@H]3C[C@H]2OC1=O [HELIOSCOPINOLIDE E] is less than 3?
Y

For this compound, is Ratio lower than 3? C=C(CC[C@@H](C)[C@H]1CC[C@@]2(C)C(=O)[C@@]3(CC[C@]12C)[C@@H](O)C[C@H]1[C@H](C)[C@@H](O)CC[C@@]13C)C(C)C
N

Given CCCC(=O)O/N=C1\CC[C@@]2(C)[C@@H]3C[C@H]4OC(=O)C(C)=C4C=C3CC[C@@H]2C1(C)C , is recorded Ratio strictly lower than 3?
Y

Quick check: Ratio of C[C@H](C/C=C/C(C)(C)O)[C@H]1CC[C@@]2(C)[C@@H]3CC[C@H]4C(C)(C)[C@@H](O)CC[C@@]45C[C@@]35CC[C@]12C under 3?
N

Given the entry CC1(C)CC[C@]2(C(=O)O)CC[C@]3(C)C(=CC[C@@H]4[C@@]5(C)CC[C@H](O)C(C)(C)[C@@H]5CC[C@]43C)[C@@H]2C1 [OLEANOLIC_ACID] , would its reported Ratio be below 3?
Y

Lab log: compare recorded Ratio with 3; is it strictly lower for C=C(C)[C@H](O)CC[C@@H](C)[C@H]1CC[C@@]2(C)[C@@H]3CC[C@H]4C(C)(C)[C@@H](O)CC[C@@]45C[C@@]35CC[C@]12C ?
N

Take the compound CC1=C2C=C3CC[C@@H]4C(C)(C)/C(=N/OC(=O)c5ccco5)CC[C@@]4(C)[C@@H]3C[C@H]2OC1=O and say whether its Ratio is less than 3.
Y

Just wondering, is Ratio of C=C(CC[C@@H](C)[C@H]1CC[C@@]2(C)C3=C(C(=O)C[C@]12C)[C@@]1(C)CC[C@H](O)[C@@H](C)[C@@H]1CC3=O)C(C)C below 3?
N

Is Ratio of CC1=C2C=C3CC[C@@H]4C(C)(C)/C(=N/OC(=O)c5ccccc5)CC[C@@]4(C)[C@@H]3C[C@H]2OC1=O strictly below 3?
N

Decide: Ratio of CC[C@H](CC[C@@H](C)[C@H]1CC[C@H]2[C@@H]3CCC4=CC(=O)CC[C@]4(C)[C@H]3CC[C@]12C)C(C)C strictly below 3?
Y

Would you kindly verify if Ratio of CC1=C2C=C3CC[C@@H]4C(C)(C)[C@@H](O)CC[C@@]4(C)[C@@H]3C[C@H]2OC1=O [HELIOSCOPINOLIDE B] is strictly less than 3?
Y

Is Ratio strictly under 3 for the entry CC1=C2C=C3CC[C@@H]4C(C)(C)/C(=N/OC(=O)c5cccs5)CC[C@@]4(C)[C@@H]3C[C@H]2OC1=O ?
Y

Given the entry CC1=C2C=C3CC[C@@H]4C(C)(C)/C(=N/O)CC[C@@]4(C)[C@@H]3C[C@H]2OC1=O , would its reported Ratio be below 3?
Y
